Cited source for all entries: patent US6511978B1

# studyTarget: Ras farnesyl transferase (Homo sapiens, UniProt P49354+P49356)
# Construct: made in house
# methodNotes: Ras farnesyl transferase enzyme inhibition, K-Ras substrate (H-Ras fused with polybasic lysine domain of K-Ras)
# Assay type: biochemical
# reportedConditions: K-Ras substrate (fused protein of H-Ras with polybasic lysine domain of K-Ras); recombinant farnesyl transferase
measureName: IC50

Query: Lab request: please report IC50 under test system Ras farnesyl transferase (Homo sapiens, UniProt P49354+P49356) for COCCN(C)C(=O)c1cn(Cc2c(C)ncn2CCCOCc2ccccc2)cc1-c1cccc2ccccc12
Result: < 0.0021 µM

Query: Same for CN1CCN(C(=O)c2cn(Cc3c(I)ncn3Cc3ccc4c(c3)OCO4)cc2-c2cccc3ccccc23)CC1
Result: < 0.018 µM

Query: Same for O=[N+]([O-])c1cn(Cc2cncn2Cc2ccc(Br)cc2)cc1-c1cccc2ccccc12
Result: > 0.03 µM

Query: Same for O=[N+]([O-])c1cn(Cc2cncn2Cc2ccc3c(c2)OCO3)cc1-c1cccc2ccccc12
Result: < 0.0155 µM

Query: Same for CON1CCN(C(=O)c2cn(Cc3c(C)ncn3Cc3ccc4c(c3)OCO4)cc2-c2cccc3ccccc23)CC1
Result: > 0.03 µM

Query: Same for Cc1ncn(Cc2ccc3ccccc3c2)c1Cn1cc(C(=O)N2CCN(C)CC2)c(-c2cccc3ccccc23)c1
Result: < 0.03 µM

Next compound, please.
Query: Lab request: please report IC50 under test system Ras farnesyl transferase (Homo sapiens, UniProt P49354+P49356) for COCCN(C)C(=O)c1cn(Cc2cncn2CCCN2CCOCC2)cc1-c1cccc2ccccc12
Result: < 0.01 µM

====

# studyTarget: Ras farnesyl transferase (Homo sapiens, UniProt P49354+P49356)
# Construct: made in house
# methodNotes: Ras farnesyl transferase enzyme inhibition, K-Ras substrate (H-Ras fused with polybasic lysine domain of K-Ras)
# Type: biochemical
# reportedConditions: K-Ras substrate (fused protein of H-Ras with polybasic lysine domain of K-Ras); recombinant farnesyl transferase
pIC50: −log10 of the molar value.
Quick reference: pIC50 of the listed items.

Solved cases below.
Query: Record request: pIC50 value, item CSc1ncc(Cn2cc(C(=O)N3CCN(C)CC3)c(-c3cccc4ccccc34)c2)n1Cc1ccc2c(c1)OCO2 [Example 18]
Result: > 7.92

Query: Same for Cc1ncn(Cc2ccc3c(c2)OCO3)c1Cn1cc(C(=O)N2CCN(C)CC2)c(-c2cc(Br)cc3ccccc23)c1 [Example 51]
Result: > 7.52

Next compound, please.
Query: Record request: pIC50 value, item O=[N+]([O-])c1cn(Cc2cncn2CCc2cccc3ccccc23)cc1-c1cccc2ccccc12 [Example 46]
Result: > 8.22

====

Quick reference: pIC50 of the listed items.
# studyTarget: Ras farnesyl transferase (Homo sapiens, UniProt P49354+P49356)
# Construct: made in house
# methodNotes: Ras farnesyl transferase enzyme inhibition, H-Ras substrate
# Type: biochemical
# reportedConditions: H-Ras substrate protein; recombinant farnesyl transferase; 30 minutes at 37° C.
pIC50: −log10 of the molar value.

Solved cases below.
Query: Record request: pIC50 value, item CCOCCCn1cncc1Cn1cc(-c2cccc3ccccc23)c([N+](=O)[O-])c1
Result: > 7.82

Query: Same for CCOCCCn1c(Cn2cc(C(=O)N3CCN(C)CC3)c(-c3cccc4ccccc34)c2)cnc1C
Result: > 8.52

Next molecule, please.
Query: Record request: pIC50 value, item O=C(c1cn(Cc2cncn2C2CCN(Cc3ccccc3)CC2)cc1-c1cccc2ccccc12)N1CCOCC1
Result: > 8.00
